# assayOverview: Plasma concentration in LPA-induced C57BL/6J mouse at 30 mg/kg, po administered via gavage and measured after 1 hr by LC-MS/MS analysis
# Type: ADME, organism-based
experimentalReadout: concentration at 1 h (ng/mL)

> print(dat)
                             chemicalsmiles   experimentalreadout  endpointvalue
1  COc1cc([C@@H](C)N(CCCCc2ccccc2)C(=O)NC2(C(=O)O)CC(F)(F)C2)cc(OC)c1C  concentration at 1 h           4240

====

# assayOverview: Plasma concentration in LPA-induced C57BL/6J mouse at 30 mg/kg, po administered via gavage and measured after 8 hrs by LC-MS/MS analysis
# Assay type: ADME, organism-based
experimentalReadout: concentration at 8 h

> print(dat)
                             chemicalsmiles   experimentalreadout  endpointvalue
1  COc1cc([C@@H](C)N(CCCCc2ccccc2)C(=O)NC2(C(=O)O)CC(F)(F)C2)cc(OC)c1C  concentration at 8 h      596 ng/mL

====

# targetEntity: Lysophosphatidic acid receptor 1 (Homo sapiens)
# Sequence (Q92633 whole entry): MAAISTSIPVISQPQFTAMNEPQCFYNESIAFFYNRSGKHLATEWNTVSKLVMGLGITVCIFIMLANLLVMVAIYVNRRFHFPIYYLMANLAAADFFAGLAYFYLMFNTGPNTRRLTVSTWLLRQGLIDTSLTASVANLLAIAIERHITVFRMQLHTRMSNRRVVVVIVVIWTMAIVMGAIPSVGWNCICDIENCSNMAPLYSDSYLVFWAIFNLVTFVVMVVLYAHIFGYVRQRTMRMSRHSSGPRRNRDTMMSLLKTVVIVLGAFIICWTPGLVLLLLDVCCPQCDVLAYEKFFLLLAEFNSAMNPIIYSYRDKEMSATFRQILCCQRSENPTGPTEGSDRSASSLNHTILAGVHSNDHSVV
# assayOverview: Antagonist activity at human LPA1 receptor stably expressed in rat RH7777 cells assessed as reduction in LPA-induced intracellular Ca2+ concentration preincubated for 30 mins followed by LPA addition measured by Fluo-4 probe based fluorescence assay
So basically: is IC50 under 2 µM? Then criterion met. Not under? Then criterion not met.

> print(dat)
                             chemicalsmiles          classname
1  COc1cc(CN(CCCCc2ccccc2)C(=O)NC2(C(=O)O)CC2)cc(OC)c1C  criterion not met
2  COc1cc(CN(CCCCc2ccccc2)C(=O)NC(C)(C)C(=O)O)cc(OC)c1C  criterion not met
3  COc1cc([C@H](C)N(CCCCc2ccccc2)C(=O)NC2(C(=O)O)CC(F)(F)C2)cc(OC)c1C      criterion met
4  COc1cc(CN(CCCCc2ccccc2)C(=O)NC2(C(=O)O)CCCCC2)cc(OC)c1C  criterion not met
5  COc1cc(CN(CCCCc2ccccc2)C(=O)NC2(C(=O)O)CCCC2)cc(OC)c1C      criterion met

====

# assayOverview: Plasma concentration in LPA-induced C57BL/6J mouse at 100 mg/kg, po administered via gavage and measured after 1 hr by LC-MS/MS analysis
# Type: ADME, organism-based
experimentalReadout: concentration at 1 h

> print(dat)
                             chemicalsmiles   experimentalreadout  endpointvalue
1  COc1cc([C@@H](C)N(CCCCc2ccccc2)C(=O)NC2(C(=O)O)CC(F)(F)C2)cc(OC)c1C  concentration at 1 h    12100 ng/mL

====

# assayOverview: Plasma concentration in LPA-induced C57BL/6J mouse at 30 mg/kg, po administered via gavage and measured after 4 hrs by LC-MS/MS analysis
# Format: ADME, organism-based
experimentalReadout: concentration at 4 h (ng/mL)

> print(dat)
                             chemicalsmiles   experimentalreadout  endpointvalue
1  COc1cc([C@@H](C)N(CCCCc2ccccc2)C(=O)NC2(C(=O)O)CC(F)(F)C2)cc(OC)c1C  concentration at 4 h            805

====

# targetEntity: Lysophosphatidic acid receptor 1 (Homo sapiens)
# assayOverview: Antagonist activity at human LPA1 receptor stably expressed in rat RH7777 cells assessed as reduction in LPA-induced intracellular Ca2+ concentration preincubated for 30 mins followed by LPA addition measured by Fluo-4 probe based fluorescence assay
pIC50: −log10 of the molar value.
Overview of recorded pIC50 for various compounds
experimentalReadout: pIC50

> print(dat)
                             chemicalsmiles  endpointvalue
1  COc1cc(CN(CCCCc2ccccc2)C(=O)N[C@H](CC(C)C)C(=O)O)cc(OC)c1C           5.44
2  COc1cc([C@@H](C)N(CCCCCc2ccccc2)C(=O)NC2(C(=O)O)CC(F)(F)C2)cc(OC)c1C           6.23
3  COc1cc([C@@H](C)N(CCCc2ccccc2)C(=O)NC2(C(=O)O)CC(F)(F)C2)cc(OC)c1C           7.29

All values here come from ChEMBL document CHEMBL5625238.
